- tgt: full-length SlyD from Thermus thermophilus (TtSlyDFL) (Thermus thermophilus)
No end group written: not given here.
endpoint: Kd (µM)
Numbers only, in µM.

binder	Kd / µM
VGSNSYPHKYNNYEG-NH2 [T1 peptide]	158

# next binder below
Task item: Given SGLVPRGS-NH2 [SlpA linker peptide] , state its recorded Kd.
Reply: 133
